Data credit: PubChem BioAssay (NCI)

tested on: MDA-MB-231 breast; experiment: NCI tumour cell line growth inhibition, 48 h

COMPOUND	TARGET	TGI
Cc1n[nH]c(=O)n1Nc1ccccc1	MDA-MB-231 breast	> 100 µM
COc1ccc(N=C(CS(=O)c2ccc(C)cc2)C(F)(F)F)cc1 (stereo unspecified)	MDA-MB-231 breast	> 100 µM
O=C(CCc1ccc(O)c(O)c1)NCCc1ccccc1	MDA-MB-231 breast	> 63.8 µM
CC1(C)CCCC2CC2CCC(C)(C)C1=O (stereo unspecified)	MDA-MB-231 breast	> 100 µM
CCOC(=O)Nc1ccc2nc(N3CCCCCC3)sc2c1	MDA-MB-231 breast	> 56.8 µM
COc1ccc(C2CC(c3ccc(NS(=O)(=O)c4cc([N+](=O)[O-])ccc4C)cc3)=NN2S(=O)(=O)c2cc([N+](=O)[O-])ccc2C)cc1 (stereo unspecified)	MDA-MB-231 breast	> 100 µM
COc1ccc2nc3cc([N+](=O)[O-])ccc3c(NNc3ccc([N+](=O)[O-])cc3)c2c1	MDA-MB-231 breast	> 91.6 µM
CC(C(=O)NCCNC(=O)CCCC(=O)N(C)O)C(=O)NCCNC(=O)CCCC(=O)N(C)O	MDA-MB-231 breast	> 100 µM
O=C(CN1CCN(CCN2C(=O)c3cccc4cccc(c34)C2=O)CC1)Nc1ccc2ncsc2c1	MDA-MB-231 breast	> 100 µM
Clc1ccc(-c2nc3c(-c4ccccc4)nc(-c4ccccc4)cn3c2-c2ccc(Cl)cc2)cc1	MDA-MB-231 breast	> 100 µM
CCC(CC)c1cc(N[C@H]2CC[C@H](N)C2)n2nccc2n1	MDA-MB-231 breast	> 100 µM

----------
tested on: OVCAR-5 ovarian; assay: NCI tumour cell line growth inhibition, 48 h
Item-by-item account of TGI

COMPOUND	TGI
COc1ccc2nc3cc(Cl)ccc3c(NCCNCC(O)CO)c2c1 (centres undefined)	11.2 µM
Cc1ccc(S(=O)(=O)NN=C2C(C)(C)CC2(C)C)cc1	> 100 µM
O=C1NC(=S)N/C1=C\c1ccc(Cl)cc1	> 100 µM
Cc1cccc2c(N)c3cccc(C(=O)NCC[N+](C)(C)Cc4ccc(S(C)(=O)=O)cc4)c3nc12	> 100 µM

----------
system: LOX IMVI melanoma; experiment: NCI tumour cell line growth inhibition, 48 h
The reader will find reported TGI values listed item by item below.

COMPOUND	TGI
CO[C@H](C(=O)O[C@H]1C(=O)N2CC[C@@H]3CCC[C@H]1C32C)c1ccccc1 (some centres not stated)	> 100 µM
CN1C(=O)/C(=C2\S/C(=N\c3nnc(-c4ccccc4)o3)NC2=O)c2ccccc21	> 100 µM
O=C(/C=C\c1cc(Br)ccc1O)/C=C/c1cc(Br)ccc1O	0.463 µM
NC1=NCC(CN2CCCCC2)O1 (configuration not stated)	> 100 µM
O=C1C=CC(=O)c2c(O)c(NCCO)c(Cl)c(O)c21	3 µM
O=C(CC(=O)N1N=C(n2ccc3ccccc32)CC1c1ccccc1)Nc1ccc(Cl)cc1 (configuration not stated)	> 100 µM
[N-]=[N+]=NCCCn1c2c(c3ccc([N+](=O)[O-])cc3c1=O)C(=O)c1cc(I)ccc1-2	33 µM
CCC(CC)c1cc(N[C@H]2CC[C@H](N)C2)n2nccc2n1	> 100 µM
Clc1cc2nc(C3CCCCO3)[nH]c2cc1Cl (configuration not stated)	> 100 µM
COc1ccc(N=C(CS(=O)c2ccc(C)cc2)C(F)(F)F)cc1 (configuration not stated)	> 100 µM
O=[N+]([O-])c1ccc(NNN=Nc2ccc(-c3nc4ccccc4[nH]3)cc2)c([N+](=O)[O-])c1	> 100 µM
C1=Nc2ccccc2Cn2nncc21	> 100 µM
CC(C)(Oc1ccc(C(=O)c2ccc(Cl)cc2)cc1Cl)C(=O)N1CCN(CCO)CC1	> 10 µM
CCOc1ccc(N2C(=O)NC3(c4ccccc4)N(C)C(=O)N(C)C23c2ccccc2)cc1 (configuration not stated)	> 100 µM
O=C(Nc1ccn(C2CC(I)C(COC(c3ccccc3)(c3ccccc3)c3ccccc3)O2)c(=O)n1)c1ccccc1 (configuration not stated)	14.7 µM
CC(=O)OC1CC2C(C)(C)CCC[C@]2(C)C2=C1C(O)=C(C(C)C)C(=O)C2=O (some centres not stated)	2.95 µM
CC[O-].CC[O-].COc1ccc(C(=O)[CH-]C(C)=O)cc1OC.COc1ccc(C(=O)[CH-]C(C)=O)cc1OC.[Ti+4]	> 100 µM
N#CC(C#N)=Cc1ccc(C(O)P(=O)(O)O)cc1 (configuration not stated)	> 100 µM
CC1(C)CCCC2CC2CCC(C)(C)C1=O (configuration not stated)	> 100 µM
CSCCC(NC(=O)Cc1ccc(C(=O)c2ccccc2)cc1)C(=O)N1CCN(CCCCN2c3ccccc3Sc3cc(N=[N+]=[N-])ccc32)CC1 (configuration not stated)	> 100 µM
CC(=O)c1cc2c(s1)C(=O)c1ccsc1C2=O	0.0782 µM
CCCCCCCCCCCCNC(=O)N[C@H](C(=O)N[C@H]1/C=C/CCNC(=O)/C=C/[C@H](C)NC1=O)C(C)C	0.355 µM

----------
tested on: LOX IMVI melanoma; test: NCI tumour cell line growth inhibition, 48 h

COMPOUND	TARGET	TGI
O=C(CCC(=O)Nc1ccc(Cl)cc1)CC(=O)c1ccc2ccccc2c1	LOX IMVI melanoma	> 100 µM
O=c1ccc2c(Cl)cccc2o1	LOX IMVI melanoma	> 100 µM
CCCCCCc1cc2cc(C(=O)NCc3ccccc3)c(=N)oc2cc1O	LOX IMVI melanoma	> 100 µM
C[C@@H](Oc1ccc(Oc2cnc3ccc(Cl)cc3n2)cc1)C(=O)O	LOX IMVI melanoma	> 100 µM
CCCC(=O)N(C)N=Nc1ccc(C(=O)OCC)cc1	LOX IMVI melanoma	> 100 µM
CCC(=O)N(c1ccccc1)C(C)CN1CCC(O)(c2cccc(C(F)(F)F)c2)CC1 (configuration not stated)	LOX IMVI melanoma	35 µM
O=C(CC(Cc1ccccc1)c1ccc(Oc2ccccc2)cc1)Nc1cccc(Cl)c1 (configuration not stated)	LOX IMVI melanoma	49.2 µM

----------
test system: SR leukemia; assay: NCI tumour cell line growth inhibition, 48 h

COMPOUND	TARGET	TGI
CCOc1ccc(N2C(=O)NC3(c4ccccc4)N(C)C(=O)N(C)C23c2ccccc2)cc1 (stereo not given)	SR leukemia	> 100 µM
O=C1CC(C(=O)O)Cc2c(Br)ccc(O)c21 (stereo not given)	SR leukemia	> 100 µM
CCCCCCCCCC(=O)NCCc1c[nH]c2ccc(OC)cc12	SR leukemia	> 100 µM
CCOC(CN(C)C(=O)Nc1ccc(Cl)c(Cl)c1)OCC	SR leukemia	> 10 µM
O=CC1CCC=CC1NC(=O)OCc1ccccc1 (stereo not given)	SR leukemia	> 100 µM

----------
test system: HL-60(TB) leukemia; assay: NCI tumour cell line growth inhibition, 48 h
MEASURED_METRIC: log10 TGI (log10 of the value in µM)

COMPOUND	MEASURED_METRIC	READING
O=C(Nc1ccc(Oc2ccc(NC(=O)Nc3ccccc3Cl)cc2)cc1)Nc1ccccc1Cl	log10 TGI	1.51
O=C(CCc1ccc(O)c(O)c1)NCCc1ccccc1	log10 TGI	1.53
CC1=NNC(=O)C1C1CC(c2c[nH]c3ccccc23)=NN(c2ccccc2)C1=O (centres undefined)	log10 TGI	1.97
O=C(Nc1ccn(C2CC(I)C(COC(c3ccccc3)(c3ccccc3)c3ccccc3)O2)c(=O)n1)c1ccccc1 (centres undefined)	log10 TGI	1.33
OCC(O)C(O)C(O)C(O)CNCCO/N=C1/C(c2c(O)[nH]c3ccccc23)=Nc2ccccc21 (centres undefined)	log10 TGI	1.58
C[C@]12CCCN1CC1=NNC(=O)c3cc(F)cc4[nH]c2c1c34	log10 TGI	1.83
O=C1C(Cl)=C(N2CCN(CCOCCO)CC2)C(=O)c2ccccc21	log10 TGI	1.15
COC(=O)CC1C2(C)C3=C(C)C(c4ccoc4)CC3OC2C2OC(=O)C3(C)C=CC(=O)C1(C)C23 (centres undefined)	log10 TGI	0.44
CC(=O)Nc1c2sscc-2n(C)c1=O	log10 TGI	0.77
O=C(/C=C\c1cc(Br)ccc1O)/C=C/c1cc(Br)ccc1O	log10 TGI	0.63
CC(C)=CC1C(COC(=O)c2ccccc2Cl)C1(C)C (centres undefined)	log10 TGI	1.83
CN(C)CCCOc1ccc(/C=C2/CCC/C(=C/c3ccc(OCCCN(C)C)cc3)C2=O)cc1	log10 TGI	0.56
CC1(C)CCCC2CC2CCC(C)(C)C1=O (centres undefined)	log10 TGI	1.61
CC(C)(C)CNCCCNc1ccc(Cl)cc1	log10 TGI	-0.76
O=C(CC(Cc1ccccc1)c1ccc(Oc2ccccc2)cc1)Nc1cccc(Cl)c1 (centres undefined)	log10 TGI	1.01

----------
system: U251 CNS; assay: NCI tumour cell line growth inhibition, 48 h
# key: entry, value: TGI
MEASURED_METRIC: TGI

MOLECULE	READING
CC(=O)OC1CC2C(C)(C)CCC[C@]2(C)C2=C1C(O)=C(C(C)C)C(=O)C2=O (stereo not given in full)	21.7 µM
Cc1ccc(NC(=O)CCc2nnc3s/c(=C\c4cccc([N+](=O)[O-])c4)c(=O)n23)cc1	> 100 µM
CC1=NN(c2cccc(Cl)c2)C2(C1=Cc1cccs1)C(Cl)C(=O)N2c1nc2ccccc2s1 (stereo not given)	30.7 µM
CCC1=C[C@@H]2CN(C1)Cc1c([nH]c3ccccc13)[C@@](C(=O)OC)(c1cc3c(cc1OC)N(C)[C@H]1[C@@](O)(C(=O)OC)[C@H](OC(C)=O)[C@]4(CC)C=CCN5CC[C@]31[C@@H]54)C2	8.42 µM
Cc1cn(CC2=NC3CCCCC3N2)c(=O)[nH]c1=O (stereo not given)	> 100 µM
O=[N+]([O-])c1ccc(Cc2nc3cc4ccccc4cc3[nH]2)cc1C(F)(F)F	37.3 µM
CC(=O)NC(CS)C(=O)O (stereo not given)	> 100 µM
O=CC1CCC=CC1NC(=O)OCc1ccccc1 (stereo not given)	> 100 µM
CN1C(=O)/C(=C2\S/C(=N\c3nnc(-c4ccccc4)o3)NC2=O)c2ccccc21	> 100 µM
CSCCC(NC(=O)Cc1ccc(C(=O)c2ccccc2)cc1)C(=O)N1CCN(CCCCN2c3ccccc3Sc3cc(N=[N+]=[N-])ccc32)CC1 (stereo not given)	> 100 µM
